# Lookup of reported binding signal keyed by entry
assay-target: RELARELA (p65 homodimer) (Homo sapiens, UniProt Q04206 1-307)
Sequence (Q04206 1-307): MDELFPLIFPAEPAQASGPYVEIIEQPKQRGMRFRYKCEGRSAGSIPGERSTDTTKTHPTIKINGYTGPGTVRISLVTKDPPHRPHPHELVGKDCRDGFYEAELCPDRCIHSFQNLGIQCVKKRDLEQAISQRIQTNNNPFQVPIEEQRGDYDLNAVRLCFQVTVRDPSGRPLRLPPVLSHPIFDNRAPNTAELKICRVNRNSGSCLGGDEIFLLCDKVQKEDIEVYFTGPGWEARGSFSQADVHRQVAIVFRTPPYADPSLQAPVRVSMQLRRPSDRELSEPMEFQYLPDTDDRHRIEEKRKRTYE
test-details: protein binding microarray; high values mean tight binding
reported-conditions: dsDNA, one strand shown

{"columns": ["seq-text", "value-units", "binding signal"],
 "data": [
  ["AGATAGATCCT", "z-score", -0.82],
  ["AGAGGAGCCCC", "z-score", -0.573],
  ["AAGTGTATCCC", "z-score", -0.0644],
  ["CAGGTTACCCC", "z-score", 0.269],
  ["CAGAACTTCCC", "z-score", 1.94],
  ["AGGTGGTCCCT", "z-score", -0.0291],
  ["GAAAACGTCCT", "z-score", -0.176],
  ["AAAGGAGTCCC", "z-score", 0.141],
  ["CGAAGGACCCT", "z-score", -1.31],
  ["CAAATTTTCCC", "z-score", 2.86],
  ["CGAGGTGCCCT", "z-score", -0.746],
  ["AGGTGATTCCC", "z-score", 1.45],
  ["CGGTTCATCCT", "z-score", -0.997],
  ["GAAATCGCCCC", "z-score", 0.357],
  ["CGGAAATCCCT", "z-score", 2.44],
  ["AAATGAGTCCT", "z-score", -0.142],
  ["GGAAATCCCCT", "z-score", 3.63],
  ["GAGATTACCCT", "z-score", 0.00649],
  ["GGAAGGGCCCC", "z-score", -0.533],
  ["GAATGATCCCC", "z-score", -0.194],
  ["AGGATACCCCC", "z-score", 0.417]
]}
